Origin of the recorded values: the supplement of paper PMC10567573

Entries and their measured protein stability index follow.
B1: TRAF3IP2 (parent)
chain: PGQPLPGASVRGLHPVQKVILNYP

variants of: B1; experiment: protein stability index of a GFP-peptide fusion (GPS, HEK-293T) (PSI 1-6); higher = more stable; conditions: c terminus: a fixed tail appended;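 also: lentivirally expressed fusions sorted by FACS into six bins by GFP to DsRed ratio, PSI derived from sequencing read proportions per bin multiplied by bin number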

mutation-annotation: V10P
protein stability index: 3.22
--
mutation-annotation: A8F
protein stability index: 2.51
--
mutation-annotation: A8V
protein stability index: 2.39
--
mutation-annotation: S9P
protein stability index: 3.58
--
mutation-annotation: G2V
protein stability index: 3.21
--
mutation-annotation: V10F
protein stability index: 2.36
--
mutation-annotation: V10Q
protein stability index: 3.05
--
mutation-annotation: S9L
protein stability index: 3.09
--
mutation-annotation: L13P
protein stability index: 3.84
--
mutation-annotation: G7W
protein stability index: 2.09
--
mutation-annotation: V10G
protein stability index: 3.54
--
mutation-annotation: V19N
protein stability index: 3.59
--
mutation-annotation: L5A
protein stability index: 3.31
--
mutation-annotation: R11F
protein stability index: 2.06
--
mutation-annotation: L5G
protein stability index: 3.56
--
mutation-annotation: V19L
protein stability index: 3.23
--
mutation-annotation: H14D
protein stability index: 3.67
--
mutation-annotation: L13V
protein stability index: 2.85
--
mutation-annotation: P6G
protein stability index: 2.5
--
mutation-annotation: Q17S
protein stability index: 2.77
--
mutation-annotation: P15A
protein stability index: 2.29
--
mutation-annotation: K18D
protein stability index: 3.6
--
mutation-annotation: P6M
protein stability index: 3.09
--
mutation-annotation: N22L
protein stability index: 1.83
--
mutation-annotation: P24L
protein stability index: 2.13
--
mutation-annotation: P6I
protein stability index: 2.79
--
mutation-annotation: V19E
protein stability index: 4.06
--
mutation-annotation: R11M
protein stability index: 2.75
--
mutation-annotation: V16R
protein stability index: 3.49
--
mutation-annotation: K18H
protein stability index: 2.85
--
mutation-annotation: Y23P
protein stability index: 4.11
--
mutation-annotation: L5Q
protein stability index: 3.95
--
mutation-annotation: R11G
protein stability index: 2.73
--
mutation-annotation: P6Y
protein stability index: 2.72
--
mutation-annotation: Y23G
protein stability index: 3.71
--
mutation-annotation: R11V
protein stability index: 2.84
--
mutation-annotation: K18Y
protein stability index: 2.52
--
mutation-annotation: Q17F
protein stability index: 1.26
--
mutation-annotation: R11D
protein stability index: 3.71
--
mutation-annotation: G7N
protein stability index: 2.68
--
mutation-annotation: H14G
protein stability index: 2.59
--
mutation-annotation: H14Q
protein stability index: 3.67
--
mutation-annotation: P6C
protein stability index: 2.08
--
mutation-annotation: G7Q
protein stability index: 3.12
--
mutation-annotation: P6V
protein stability index: 3.46
--
mutation-annotation: P4W
protein stability index: 2.84
--
mutation-annotation: R11L
protein stability index: 2.25
--
mutation-annotation: L21M
protein stability index: 3.45
--
mutation-annotation: I20S
protein stability index: 4.67
--
mutation-annotation: V16F
protein stability index: 2.83
--
mutation-annotation: Q17L
protein stability index: 1.71
--
mutation-annotation: L21W
protein stability index: 2.22
--
mutation-annotation: P1I
protein stability index: 2.99
--
mutation-annotation: R11H
protein stability index: 3.51
--
mutation-annotation: P24D
protein stability index: 3.68
--
mutation-annotation: V10Y
protein stability index: 3
--
mutation-annotation: H14R
protein stability index: 3.37
--
mutation-annotation: P6A
protein stability index: 3.49
--
mutation-annotation: Q3F
protein stability index: 2.42
--
mutation-annotation: L13E
protein stability index: 3.9
--
mutation-annotation: I20A
protein stability index: 3.89
--
mutation-annotation: Y23I
protein stability index: 3.19
--
mutation-annotation: V16N
protein stability index: 3.61
--
mutation-annotation: P4V
protein stability index: 2.69
--
mutation-annotation: L21I
protein stability index: 3.5
--
mutation-annotation: Y23C
protein stability index: 3.42
--
mutation-annotation: S9G
protein stability index: 3.2
--
mutation-annotation: K18G
protein stability index: 3.57
--
mutation-annotation: P6T
protein stability index: 3.21
--
mutation-annotation: R11S
protein stability index: 3.12
--
mutation-annotation: P4H
protein stability index: 3.08
--
mutation-annotation: G12H
protein stability index: 2.7
--
mutation-annotation: G2P
protein stability index: 3.35
--
mutation-annotation: L5R
protein stability index: 3.19
--
mutation-annotation: H14A
protein stability index: 3.45
--
mutation-annotation: P15Q
protein stability index: 3.85
--
mutation-annotation: G12C
protein stability index: 2.72
--
mutation-annotation: G2D
protein stability index: 4.21
--
mutation-annotation: P24Y
protein stability index: 1.79
--
mutation-annotation: Q3G
protein stability index: 4.09
--
mutation-annotation: Q17G
protein stability index: 3.1
--
mutation-annotation: P15I
protein stability index: 1.76
--
mutation-annotation: I20K
protein stability index: 4.01
--
mutation-annotation: V19C
protein stability index: 3.16
--
mutation-annotation: P24R
protein stability index: 2.65
--
mutation-annotation: P24M
protein stability index: 1.22
--
mutation-annotation: N22F
protein stability index: 1.59
--
mutation-annotation: L13K
protein stability index: 3.5
--
mutation-annotation: Q3W
protein stability index: 2.31
--
mutation-annotation: P24G
protein stability index: 2.56
--
mutation-annotation: P1D
protein stability index: 2.97
